Below, each entry is listed alongside its reported viability, T/C.
# Test system: 485176-168-R4-J1-PDC spheroids with HUVEC/MSC, viability
# ASSAY_COMMENT: Anticancer human tumor 485176-168-R4-J1-PDC patient-derived pancreatic adenocarcinoma cell line growth inhibition [GQUAD]
# CONDITIONS: second compound 0.0316 µM; first compound 1 µM; active compounds read low
Quick reminder: number only, in %, skip the unit.

Observe how each entry below is paired with its result.
INSERT INTO assay_data (molecule, reported_result) VALUES
  ('CC1COCCN1c1cc(C2(O)CC3CCC(C2)O3)c2cnn(-c3ccn[nH]3)c2n1 (stereo unspecified) + CN(C)c1ccc(Nc2c3ccc(NC(=O)CCN4CCCC4)cc3nc3cc(NC(=O)CCN4CCCC4)ccc23)cc1', 9.43),
  ('CC1COCCN1c1cc(C2(S(C)(=N)=O)CC2)nc(-c2ccnc3[nH]ccc23)n1 (stereo unspecified) + Cc1[nH]c2ccc(F)cc2c1-c1nc2c3cccnc3c3ncccc3c2[nH]1', 53.6),
  ('C#Cc1c(F)ccc2cc(O)cc(-c3ncc4c(N5CC6CCC(C5)N6)nc(OCC56CCCN5CC(F)C6)nc4c3F)c12 (stereo unspecified) + Cc1[nH]c2ccc(F)cc2c1-c1nc2c3cccnc3c3ncccc3c2[nH]1', 84.1),
  ('Cc1cccc(N(C)C(=O)C2C(O)CCN2c2nc(C)cc(C(F)(F)F)c2C#N)c1 (stereo unspecified) + Cc1cnc(CNC(=O)c2c(=O)c3ccc(N4CCCN(C)CC4)nc3n3c2sc2ccccc23)cn1', 97.2),
  ('Nc1ccn(C2OC(CO)C(O)C2(F)F)c(=O)n1 (stereo unspecified) + Cc1[nH]c2ccc(F)cc2c1-c1nc2c3cccnc3c3ncccc3c2[nH]1', 9.1),
  ('C#Cc1c(F)ccc2cc(O)cc(-c3ncc4c(N5CC6CCC(C5)N6)nc(OCC56CCCN5CC(F)C6)nc4c3F)c12 (stereo unspecified) + Cc1cnc(CNC(=O)c2c(=O)c3ccc(N4CCCN(C)CC4)nc3n3c2sc2ccccc23)cn1', 81),
  ('O=C(c1cc(Cc2n[nH]c(=O)c3ccccc23)ccc1F)N1CCN(C(=O)C2CC2)CC1 + Cc1[nH]c2ccc(F)cc2c1-c1nc2c3cccnc3c3ncccc3c2[nH]1', 80.5),
  ('C=CC(=O)N1CCN(c2nc(=O)n(-c3c(C)ccnc3C(C)C)c3nc(-c4c(O)cccc4F)c(F)cc23)C(C)C1 (stereo unspecified) + CN(C)c1ccc(Nc2c3ccc(NC(=O)CCN4CCCC4)cc3nc3cc(NC(=O)CCN4CCCC4)ccc23)cc1', 98.1);

Ask | Recorded viability, T/C for CC1COCCN1c1cc(-c2ccnn2C)c2ccnc(-c3ccn[nH]3)c2n1 (stereo unspecified) + Cc1cnc(CNC(=O)c2c(=O)c3ccc(N4CCCN(C)CC4)nc3n3c2sc2ccccc23)cn1 , please?
Reply | 8.3

Ask | Also, CC(C)n1c(=O)n(C)c2cnc3cc(F)c(-c4ccc(OCCCN5CCCCC5)nc4)cc3c21 + CN(C)c1ccc(Nc2c3ccc(NC(=O)CCN4CCCC4)cc3nc3cc(NC(=O)CCN4CCCC4)ccc23)cc1 please.
Reply | 89.7

Ask | Also, O=C(NO)c1cnc(N2CCN(S(=O)(=O)c3ccc4ccccc4c3)CC2)nc1 + Cc1[nH]c2ccc(F)cc2c1-c1nc2c3cccnc3c3ncccc3c2[nH]1 please.
Reply | 21.8

###

# System: 485176-168-R4-J1-PDC spheroids with HUVEC/MSC, viability
# ASSAY_COMMENT: Anticancer human tumor 485176-168-R4-J1-PDC cell line growth inhibition [GQUAD];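 further: spheroids exposed to compounds for seven days before readout; percent viability relative to DMSO vehicle control wells as 100%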
# CONDITIONS: second compound 0.1 µM; first compound 10 µM; active compounds read low
Under this convention, T denotes viability, T/C strictly below 80% and F denotes viability, T/C at or above 80%.

INSERT INTO results (compound, assigned_label) VALUES
  ('Cc1cccc(N(C)C(=O)C2C(O)CCN2c2nc(C)cc(C(F)(F)F)c2C#N)c1 (stereo not given) + Cc1cnc(CNC(=O)c2c(=O)c3ccc(N4CCCN(C)CC4)nc3n3c2sc2ccccc23)cn1', 'T'),
  ('C#Cc1c(F)ccc2cc(O)cc(-c3ncc4c(N5CC6CCC(C5)N6)nc(OCC56CCCN5CC(F)C6)nc4c3F)c12 (stereo not given) + Cc1cnc(CNC(=O)c2c(=O)c3ccc(N4CCCN(C)CC4)nc3n3c2sc2ccccc23)cn1', 'T'),
  ('Cc1cccc(N(C)C(=O)C2C(O)CCN2c2nc(C)cc(C(F)(F)F)c2C#N)c1 (stereo not given) + Cc1[nH]c2ccc(F)cc2c1-c1nc2c3cccnc3c3ncccc3c2[nH]1', 'F'),
  ('Nc1ccn(C2OC(CO)C(O)C2(F)F)c(=O)n1 (stereo not given) + Cc1cnc(CNC(=O)c2c(=O)c3ccc(N4CCCN(C)CC4)nc3n3c2sc2ccccc23)cn1', 'T');

// next entry
Ask | # TODO verify viability, T/C < 80% strictly for this compound: C=CCn1c(=O)c2cnc(Nc3ccc(N4CCN(C)CC4)cc3)nc2n1-c1cccc(C(C)(C)O)n1 + Cc1cnc(CNC(=O)c2c(=O)c3ccc(N4CCCN(C)CC4)nc3n3c2sc2ccccc23)cn1
Reply | T

###

# Tested on: 485176-168-R4-J1-PDC spheroids with HUVEC/MSC, viability
# ASSAY_COMMENT: Anticancer human tumor 485176-168-R4-J1-PDC cell line growth inhibition [GQUAD];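 further: spheroids exposed to compounds for seven days before readout; percent viability relative to DMSO vehicle control wells as 100%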
# CONDITIONS: second compound 0.316 µM; first compound 1 µM; active compounds read low
MEASURE: viability, T/C

INSERT INTO measurements (compound, measure, reported_result) VALUES
  ('CCCS(=O)(=O)Nc1ccc(F)c(C(=O)c2c[nH]c3ncc(-c4ccc(Cl)cc4)cc23)c1F + CN(C)c1ccc(Nc2c3ccc(NC(=O)CCN4CCCC4)cc3nc3cc(NC(=O)CCN4CCCC4)ccc23)cc1', 'viability, T/C', '77.2%');

Ask | Recorded viability, T/C for CC(C)n1c(=O)n(C)c2cnc3cc(F)c(-c4ccc(OCCCN5CCCCC5)nc4)cc3c21 + Cc1[nH]c2ccc(F)cc2c1-c1nc2c3cccnc3c3ncccc3c2[nH]1 , please?
Reply | 88.7%

Ask | Also, CC1COCCN1c1cc(-c2ccnn2C)c2ccnc(-c3ccn[nH]3)c2n1 (stereo not given) + CN(C)c1ccc(Nc2c3ccc(NC(=O)CCN4CCCC4)cc3nc3cc(NC(=O)CCN4CCCC4)ccc23)cc1 please.
Reply | 10.3%

Ask | Also, CC1COCCN1c1cc(C2(S(C)(=N)=O)CC2)nc(-c2ccnc3[nH]ccc23)n1 (stereo not given) + Cc1cnc(CNC(=O)c2c(=O)c3ccc(N4CCCN(C)CC4)nc3n3c2sc2ccccc23)cn1 please.
Reply | 28.2%

Ask | Also, CC(=O)O[C@H]1C(=O)[C@@]2(C)[C@H]([C@H](OC(=O)c3ccccc3)[C@]3(O)C[C@H](OC(=O)[C@H](O)[C@@H](NC(=O)c4ccccc4)c4ccccc4)C(C)=C1C3(C)C)[C@]1(OC(C)=O)CO[C@@H]1C[C@@H]2O + Cc1cnc(CNC(=O)c2c(=O)c3ccc(N4CCCN(C)CC4)nc3n3c2sc2ccccc23)cn1 please.
Reply | 11.8%

###

# Test system: 485176-168-R4-J1-PDC spheroids with HUVEC/MSC, viability
# ASSAY_COMMENT: Anticancer human tumor 485176-168-R4-J1-PDC cell line growth inhibition [GQUAD];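 further: spheroids exposed to compounds for seven days before readout; percent viability relative to DMSO vehicle control wells as 100%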
# CONDITIONS: second compound 10 µM; first compound 3.16 µM; active compounds read low
Under this convention, yes (1) denotes viability, T/C strictly below 40% and no (0) denotes viability, T/C at or above 40%.

Some solved cases for reference:
INSERT INTO measurements (molecule, system_tested, assigned_label) VALUES
  ('Nc1ccn(C2OC(CO)C(O)C2(F)F)c(=O)n1 (stereo not given) + Cc1cnc(CNC(=O)c2c(=O)c3ccc(N4CCCN(C)CC4)nc3n3c2sc2ccccc23)cn1', '485176-168-R4-J1-PDC spheroids with HUVEC/MSC, viability', 'yes (1)'),
  ('CCCS(=O)(=O)Nc1ccc(F)c(C(=O)c2c[nH]c3ncc(-c4ccc(Cl)cc4)cc23)c1F + CN(C)c1ccc(Nc2c3ccc(NC(=O)CCN4CCCC4)cc3nc3cc(NC(=O)CCN4CCCC4)ccc23)cc1', '485176-168-R4-J1-PDC spheroids with HUVEC/MSC, viability', 'no (0)'),
  ('CC(C)n1c(=O)n(C)c2cnc3cc(F)c(-c4ccc(OCCCN5CCCCC5)nc4)cc3c21 + Cc1[nH]c2ccc(F)cc2c1-c1nc2c3cccnc3c3ncccc3c2[nH]1', '485176-168-R4-J1-PDC spheroids with HUVEC/MSC, viability', 'no (0)'),
  ('O=c1[nH]cc(F)c(=O)[nH]1 + Cc1[nH]c2ccc(F)cc2c1-c1nc2c3cccnc3c3ncccc3c2[nH]1', '485176-168-R4-J1-PDC spheroids with HUVEC/MSC, viability', 'no (0)');

// next entry
Ask | # TODO verify viability, T/C < 40% strictly for this molecule: COc1ccc([C@@H](O)c2cc(-c3ncnc4cc(N5CCOCC5)ccc34)c(F)cc2Cl)nn1 + Cc1[nH]c2ccc(F)cc2c1-c1nc2c3cccnc3c3ncccc3c2[nH]1
Reply | no (0)
